Tested on: K-562 leukemia
Test: NCI-60 one-dose screen, 48 h
Details: 10 µM unless noted
About 83,000 compounds went through this panel and 20% of them were active in at least one assay; those are over-represented in the sample as a whole. The source made the active and inactive calls. How the source made its calls: active means growth percent below 10; inactive means the rest.
Please state which outcome applies, choosing from active, inactive

**Q:** Which outcome did this test record for the compound CNC1=C([N+](=O)[O-])C(c2ccc(OC)cc2)C(C#N)=C(c2cccs2)O1 (centres undefined) ?
**A:** inactive

**Q:** Recorded test call requested for O=C(/C=C/C12c3ccccc3C(c3ccccc31)C1C(=O)NC(=O)C12)c1ccc(Br)cc1 (centres undefined)
**A:** inactive

**Q:** Would you mind telling me which call this test gave `Cc1ccc(-c2csc(N(C(=O)N3CCN(c4cc5c(cc4F)c(=O)c(C(=O)O)cn5C4CC4)CC3)c3ccccc3)n2)cc1` ?
**A:** inactive

**Q:** I would be grateful if you could indicate the recorded call for `CC/C(Cc1ccccc1)=C(\c1ccc(OCCCN(C)C)cc1)c1ccc(OC(=O)NCc2ccccc2)cc1` .
**A:** active

**Q:** For `Cc1nc2c(=O)nc3s/c(=C\c4ccco4)c(=O)n3c2nc1C` , which call appears in the assay record?
**A:** inactive

**Q:** # fetch the recorded call for `CSc1nc(C)c([N+](=O)[O-])c(N)n1` here
**A:** inactive

**Q:** Hi, sorry to bother you, what did the test record for `Fc1cc(Nc2ccc3c(OCCCN4CCOCC4)cccc3n2)ccc1Cl` ?
**A:** active

**Q:** What classification did `COc1ccc2c(c1)CCc1[nH]nc(-c3cc(OC)c(OC)c(OC)c3)c1-2` end up with in this test?
**A:** active

**Q:** Recorded test call requested for `CN1CCN(Cc2ccc(NC(=O)c3cncc(C#Cc4cnc(N)c5ncccc45)c3)cc2C(F)(F)F)CC1`
**A:** inactive

----------
System: MDA-MB-435 melanoma
Experiment: NCI-60 one-dose screen, 48 h
Conditions: 10 µM unless noted
The panel holds about 83,000 compounds, 20% with a hit somewhere; the sample as a whole holds those more often. Activity calls are given as the source filed them. How the source made its calls: active means growth percent below 10; inactive means the rest.
A correct response names exactly one class from active, inactive

**Q:** Status in this test for `Fc1cc(Nc2ccc3c(OCCCN4CCOCC4)cccc3n2)ccc1Cl` ?
**A:** inactive

**Q:** What did the test return for `Cc1ccc(-c2nc(N3CCNCC3)c3oc(-c4ccc(C)cc4)nc3n2)cc1` ?
**A:** active

**Q:** Which result was noted for this compound in the test: `NNCCc1ccc(NC(=O)CCCc2ccc(C(=O)Nc3ccccc3N)cc2)cc1`
**A:** inactive

**Q:** What is the recorded call for this compound in the test? `CCn1cc(CNc2ccc(C(=O)Nc3cc4cc(OC)c(OC)cc4c(C)n3)cc2)cn1`
**A:** inactive

**Q:** What outcome does the record of this test show for Cc1cccc2c1C[C@@]1(C2=O)C(c2ccc(C(C)(C)C)cc2)=NOS1=O (stereo not given in full) ?
**A:** inactive

**Q:** # lookup: test call for `O=C(Oc1ccc(CCl)cc1)c1ccccc1`
**A:** active

**Q:** Identify the outcome logged in this assay for the compound shown: `Fc1ccc2[nH]cc(-c3nc(-c4c[nH]c5ccncc45)cs3)c2c1`
**A:** active

**Q:** Lab log entry: `O=C1/C(=C\c2cccc3nccnc23)SC(=S)N1CCc1ccc(O)cc1` — outcome as called in the assay?
**A:** inactive

**Q:** Fill in: this test's call for `NS(=O)(=O)c1ccc(-c2cc(-c3nnc(SCC(=O)Nc4ccc(C(=O)/C=C/c5ccc(Cl)cc5)cc4)n3-c3ccccc3)c3ccccc3n2)cc1` is ___
**A:** inactive

**Q:** Check the results log: what was the call for `O=C(CCCCCNC(=O)c1cc(=O)c(O)co1)Nc1ccccc1` ?
**A:** inactive

**Q:** # outcome recorded in this test, key = `Cc1cccc(-c2nc(Nc3ccc4ncsc4c3)c3ccccc3n2)n1`
**A:** inactive

**Q:** Assay result, entry `COc1cc(-c2nc3c(ncc4ccc(=O)n(-c5ccccc5)c43)s2)cc(OC)c1OC` — outcome?
**A:** inactive

**Q:** Test call, this compound: `CCN(CC)CCN1C(=O)c2c(c(C)c3c(oc4ccc(O)cc43)c2C)C1=O`
**A:** inactive

**Q:** Which result was noted for this compound in the test: `C=C1C(=O)O[C@H]2[C@H]1CC/C(Cn1cc(CCC)nn1)=C\CC[C@@]1(C)O[C@@H]21`
**A:** inactive

**Q:** I would be grateful if you could indicate the recorded call for `Fc1ccc(Cn2cc(CSc3nc4ccccc4o3)nn2)cc1` .
**A:** inactive

----------
System: HCC-2998 colon
Assay: NCI-60 one-dose screen, 48 h (100 = growth as untreated, 0 = no growth, -100 = all killed)
Settings: 10 µM unless noted
Method: Growth inhibition of the HCC-2998 human tumor cell line is measured as a screen for anti-cancer activity. Cells are grown in 96 well plates and exposed to the test compound for 48 hours. Compounds are tested at a single concentration, which is 10^-5 M for most compounds. The reported endpoint is percent growth (GI% or GIPRCNT), where numbers from 0 - 100% represent growth inhibition, and numbers from -100% - 0 represent cell death. For example, a value of 40 represents 60% growth inhibition. […]
This is part of a sample that, as a whole, favours compounds with a hit. Of some 83,000 tested, about 20% had one in any assay.
measured.metric: growth (%)
Number only, in %; omit the unit.

**Q:** Specify reported growth for the compound shown: `C/C=C(/C)n1cnc2c(Nc3ccccn3)nc(Cl)nc21`
**A:** 103

**Q:** Fill in reported growth for this entry: `COc1ccc2nc(Cl)c(/C=C3\CC(c4ccccc4)=NN(c4ccccc4)C3=O)cc2c1`
**A:** 85

**Q:** Tell me measured growth for CCN1C(=O)N(CC)C2C1NN=c1s/c(=C3\C(=O)N(CC(C)C)c4ccccc43)c(=O)n12 (configuration not stated) please.
**A:** 13.8

**Q:** # return recorded growth for entry `O=S(=O)(Nc1cc(Sc2cccc3cccnc23)c(O)c2ccccc12)c1ccccc1`
**A:** 36.9

**Q:** Item `O=C(/C=C/c1ccc(Cl)cc1)c1cccc(OCCCOc2cccc(C(=O)/C=C/c3ccc(Cl)cc3)c2)c1` : provide growth
**A:** 104

**Q:** For the compound CO[C@H](C(=O)[C@@H](O)[C@@H](C)O)[C@@H]1Cc2cc3cc(O[C@H]4C[C@@H](O[C@H]5C[C@@H](O)[C@H](O)C(C)O5)[C@H](O)C(C)(O)O4)cc(O)c3c(O)c2C(=O)[C@H]1O[C@H]1C[C@@H](O[C@H]2C[C@@H](O[C@H]3C[C@@H](OC)[C@H](O)C(C)O3)[C@@H](O)C(C)O2)[C@H](O)C(C)O1 (some centres not stated) , give its measured growth value.
**A:** 39.9

**Q:** Fill in growth for record `CC(=C(c1ccc(OCCN2CCCCC2)cc1)c1ccc(OCCN2CCCCC2)cc1)c1ccc(Cl)cc1`
**A:** -93.4

**Q:** Give the value of growth reported for the following: `O=C(Nc1cc(Cl)ccc1O)c1cccc(Nc2ccnc(C(F)(F)F)c2)c1`
**A:** 25.5

**Q:** In one line, give reported growth of the entry `CC(=O)c1sc2sc(C(C)=O)c(C)c2c1C` .
**A:** 102

**Q:** Please look at this compound and report its growth: `CC1(C)CC[C@]23CC[C@]4(C)[C@H](CC[C@@H]5[C@@]6(C)C/C(=C/c7ccncc7)C(=O)C(C)(C)[C@@H]6CC[C@]54C)[C@H]2[C@H]1OC3`
**A:** 93

**Q:** Quickly give me recorded growth for `COc1ccc2c(c1)c(/C(O)=C1\COC(=O)C1=O)cn2Cc1ccc(F)cc1`
**A:** 108

**Q:** Identify measured growth associated with Cn1c2c(c3ccc(Cl)c(Cl)c31)C(C#N)C(C)(C)NC2=O (configuration not stated)
**A:** 91.8

**Q:** Answer with the recorded growth for the compound listed here: CCOC(=O)c1nn(CC(O)c2ccccc2)c(NC(=O)Nc2cccc(F)c2)c1C (configuration not stated)
**A:** 98.3

**Q:** Specify growth for `COc1ccc(C(=O)/C=C/c2ccc(Cl)cc2)cc1S(=O)(=O)Nc1c(N)nc(SC)[nH]c1=O` and stop.
**A:** 90.8

**Q:** Please give the documented growth of `CNC1=CC(=O)c2c(C(=O)OC)c(C)[n+]([O-])c(C)c2C1=O`
**A:** 50.1

**Q:** Check the records and state growth for `Cc1ncc(C(=O)Nc2ccc(CN3CCN(C)CC3)c(C(F)(F)F)c2)cc1C#Cc1cnc(N)c2ncccc12`
**A:** 52.1

**Q:** Quick one: give measured growth for `COc1ccc(/C=C/c2ccc3ccccc3n2)c(OC)c1`
**A:** 72.4

FYI, the data here is from PubChem BioAssay (NCI).
